Target: T1, EsCas13d, nuclease-dead (Eubacterium siraeum, UniProt B0MS50, R295A;H300A;R849A;H854A)
T1 sequence: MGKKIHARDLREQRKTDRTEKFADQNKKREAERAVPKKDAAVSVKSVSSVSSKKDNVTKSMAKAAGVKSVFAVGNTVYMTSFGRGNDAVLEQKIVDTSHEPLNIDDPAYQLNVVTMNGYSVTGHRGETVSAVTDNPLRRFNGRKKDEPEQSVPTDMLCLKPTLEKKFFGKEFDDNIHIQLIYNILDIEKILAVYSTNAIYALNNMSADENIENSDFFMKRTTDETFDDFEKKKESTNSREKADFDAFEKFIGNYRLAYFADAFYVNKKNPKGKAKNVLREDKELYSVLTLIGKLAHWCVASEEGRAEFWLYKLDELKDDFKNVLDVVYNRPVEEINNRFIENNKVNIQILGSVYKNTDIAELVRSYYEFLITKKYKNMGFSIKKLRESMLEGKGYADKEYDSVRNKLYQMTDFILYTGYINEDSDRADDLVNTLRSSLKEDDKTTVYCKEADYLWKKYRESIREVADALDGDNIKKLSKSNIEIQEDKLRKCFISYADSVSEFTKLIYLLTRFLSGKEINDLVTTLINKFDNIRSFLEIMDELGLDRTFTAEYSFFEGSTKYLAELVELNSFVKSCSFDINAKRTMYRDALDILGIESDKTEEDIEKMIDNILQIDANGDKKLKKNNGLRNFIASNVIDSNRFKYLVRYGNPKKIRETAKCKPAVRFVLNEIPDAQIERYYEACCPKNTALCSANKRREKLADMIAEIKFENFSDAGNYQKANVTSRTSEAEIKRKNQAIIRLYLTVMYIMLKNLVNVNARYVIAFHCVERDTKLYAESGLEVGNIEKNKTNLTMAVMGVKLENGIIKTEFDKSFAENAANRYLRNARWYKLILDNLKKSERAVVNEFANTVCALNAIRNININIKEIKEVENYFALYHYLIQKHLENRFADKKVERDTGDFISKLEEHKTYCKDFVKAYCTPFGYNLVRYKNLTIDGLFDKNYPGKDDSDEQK
Assay: crRNA (strand 1, pre-loaded); Mg2+; 40 mM Tris-HCl pH 7.5, 150 mM NaCl, 6 mM MgCl2, 1 mM DTT, 0.1% Tween-20, 0.2 mg/ml BSA; 25 C; 10 min per concentration, then washed
Details: tags: His6-TwinStrep-SUMO cleaved; N-terminal SNAP kept (SNAP-Surface 488); label: 3' end held by stalled T7 RNA polymerase
observed-property: Kd (nM)
Answers are plain numbers, in nM.

Solved entries:
1) target 1 C2U,U8A (mixed) RNA 1: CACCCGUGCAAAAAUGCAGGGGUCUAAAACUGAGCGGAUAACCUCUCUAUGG RNA 2: GGGAAUGGAUCCACAUCUACGAAUUCGUACCAUAGAGAGGUUAACCGCUUACCGAGAUCGGAAGAGCACACGU | 21.2
2) target 1 C6U,A18G (mixed) RNA 1: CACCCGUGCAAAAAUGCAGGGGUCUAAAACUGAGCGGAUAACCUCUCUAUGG RNA 2: GGGAAUGGAUCCACAUCUACGAAUUCGUACCAUGGAGAGGUUAUCUGCUCACCGAGAUCGGAAGAGCACACGU | 54
3) target 1 insG 3' of 6,insC 3' of 3 (mixed) RNA 1: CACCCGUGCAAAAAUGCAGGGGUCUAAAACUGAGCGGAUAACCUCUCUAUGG RNA 2: GGGAAUGGAUCCACAUCUACGAAUUCGUACCAUAGAGAGGUUAUCCGGCUCCACCGAGAUCGGAAGAGCACACGU | 13.7
4) target 2 MT 5'PFS ACG 3'PFS AGC (mixed) RNA 1: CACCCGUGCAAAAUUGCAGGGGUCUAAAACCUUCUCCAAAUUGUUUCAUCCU RNA 2: GGGAAUGGAUCCACAUCUACGAAUUCACGAGGAUGAAACAAUUUGGAGAAGAGCAGAUCGGAAGAGCACACGU | 6.4
5) target 1 insU 3' of 22,insG 3' of 16 (mixed) RNA 1: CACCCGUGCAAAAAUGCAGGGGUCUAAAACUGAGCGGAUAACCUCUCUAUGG RNA 2: GGGAAUGGAUCCACAUCUACGAAUUCGUACUCAUAGAGGAGGUUAUCCGCUCACCGAGAUCGGAAGAGCACACGU | 48
6) target 3 U2G,A5G (mixed) RNA 1: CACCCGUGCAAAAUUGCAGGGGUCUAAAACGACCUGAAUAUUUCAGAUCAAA RNA 2: GGGAAUGGAUCCACAUCUACGAAUUCGUUUUUGAUCUGAAAUAUUCGGGGCUGCAGAUCGGAAGAGCACACGU | 2.54
7) target 1 C4G,A14C (mixed) RNA 1: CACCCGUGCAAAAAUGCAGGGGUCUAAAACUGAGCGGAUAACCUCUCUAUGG RNA 2: GGGAAUGGAUCCACAUCUACGAAUUCGUACCAUAGAGCGGUUAUCCGGUCACCGAGAUCGGAAGAGCACACGU | 14.1

Shifting focus to the binder that follows.
Quick note, Kd for target 1 U10G,A16U (mixed) RNA 1: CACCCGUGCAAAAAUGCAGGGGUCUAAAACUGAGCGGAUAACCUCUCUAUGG RNA 2: GGGAAUGGAUCCACAUCUACGAAUUCGUACCAUAGUGAGGUGAUCCGCUCACCGAGAUCGGAAGAGCACACGU landed at 58

The measured values listed here are drawn from paper PMC10786891.
